# Experimental protocol: DRUGMATRIX: Phosphodiesterase PDE3 enzyme inhibition (substrate: [3H]cAMP + cAMP)
# Assay type: tissue-based, Homo sapiens
# Particulars: platelet; Not Active = under 50% inhibition at 10 µM

[
  {
    "Molecule": "Cc1nnc(NS(=O)(=O)c2ccc(N)cc2)s1",
    "Ki": "Not Active"
  },
  {
    "Molecule": "O=C(O)CCc1nc(-c2ccccc2)c(-c2ccccc2)o1",
    "Ki": "Not Active"
  },
  {
    "Molecule": "CC12CCC(CC1=O)C2(C)C (configuration not stated)",
    "Ki": "Not Active"
  },
  {
    "Molecule": "CC(=O)Nc1ccc2c(c1)Cc1ccccc1-2",
    "Ki": "Not Active"
  },
  {
    "Molecule": "CCN1CCN(C(=O)N[C@@H](C(=O)N[C@@H]2C(=O)N3[C@@H]2SC(C)(C)[C@@H]3C(=O)O)c2ccccc2)C(=O)C1=O",
    "Ki": "Not Active"
  },
  {
    "Molecule": "c1ccc2sc(SSc3nc4ccccc4s3)nc2c1 [BENZOTHIAZYL DISULFIDE]",
    "Ki": "Not Active"
  },
  {
    "Molecule": "O=c1[nH]cnc2c1ncn2[C@H]1CC[C@@H](CO)O1",
    "Ki": "Not Active"
  },
  {
    "Molecule": "CCO",
    "Ki": "Not Active"
  },
  {
    "Molecule": "Cc1cccc(C)c1NC(=O)C(C)N (configuration not stated) [TOCAINIDE]",
    "Ki": "Not Active"
  },
  {
    "Molecule": "C[C@H](C(=O)O)c1ccc2oc(-c3ccc(F)cc3)nc2c1",
    "Ki": "Not Active"
  },
  {
    "Molecule": "CO[C@H]1O[C@@H]2O[C@@]3(C)CC[C@H]4[C@H](C)CC[C@@H]([C@H]1C)[C@@]24OO3",
    "Ki": "Not Active"
  },
  {
    "Molecule": "CC(C)(C)NC[C@H](O)COc1cccc2c1CCCC2=O",
    "Ki": "Not Active"
  },
  {
    "Molecule": "CC[C@H]1OC(=O)[C@H](C)[C@@H](O[C@H]2C[C@@](C)(OC)[C@@H](O)[C@H](C)O2)[C@H](C)[C@@H](O[C@@H]2O[C@H](C)C[C@H](N(C)C)[C@H]2O)[C@](C)(O)C[C@@H](C)C(=O)[C@H](C)[C@@H](O)[C@]1(C)O",
    "Ki": "Not Active"
  },
  {
    "Molecule": "CCN(CC)CCNC(=O)c1cc(Cl)c(N)cc1OC [METOCLOPRAMIDE]",
    "Ki": "Not Active"
  },
  {
    "Molecule": "C#C[C@]1(O)CC[C@H]2[C@@H]3[C@H](C)CC4=C(CCC(=O)C4)[C@H]3CC[C@@]21C",
    "Ki": "Not Active"
  },
  {
    "Molecule": "CCOc1cc(N)c(Cl)cc1C(=O)NCC1CN(Cc2ccc(F)cc2)CCO1 (configuration not stated) [MOSAPRIDE]",
    "Ki": "Not Active"
  },
  {
    "Molecule": "C[C@]12CCC(=O)C[C@@H]1CC[C@@H]1[C@@H]2CC[C@]2(C)[C@@H](O)CC[C@@H]12",
    "Ki": "Not Active"
  }
]

---

# System: Adenosine receptor A3 (Homo sapiens, UniProt P0DMS8); note: in other assays of this panel Not Active means under 50% inhibition at 10 µM;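 note: radioligand binding assay with AB-MECA serving as the labeled ligand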
# Sequence (P0DMS8 whole entry): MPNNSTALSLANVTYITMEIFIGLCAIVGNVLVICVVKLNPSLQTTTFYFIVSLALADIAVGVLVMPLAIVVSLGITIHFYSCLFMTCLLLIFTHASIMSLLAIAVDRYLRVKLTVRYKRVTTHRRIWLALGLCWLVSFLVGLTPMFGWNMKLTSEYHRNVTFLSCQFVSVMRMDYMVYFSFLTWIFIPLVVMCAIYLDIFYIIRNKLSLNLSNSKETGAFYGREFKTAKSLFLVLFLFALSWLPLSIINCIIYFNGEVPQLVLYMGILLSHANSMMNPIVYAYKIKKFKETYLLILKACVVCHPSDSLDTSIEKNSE
# Type: cell membranes, CHO-K1, Membrane
# Particulars: cho-k1

[
  {
    "Compound": "CC(O)C(=O)O (centres undefined) [LACTIC ACID]",
    "IC50": "Not Active"
  },
  {
    "Compound": "CC(=O)O[C@]1(C(C)=O)CC[C@H]2[C@@H]3C[C@H](C)C4=CC(=O)CC[C@]4(C)[C@H]3CC[C@@]21C [MEDROXYPROGESTERONE ACETATE]",
    "IC50": "Not Active"
  },
  {
    "Compound": "CCN(CC)CCNC(=O)c1cc(Cl)c(N)cc1OC [METOCLOPRAMIDE]",
    "IC50": "Not Active"
  },
  {
    "Compound": "CC(C)(C#N)c1cc(Cn2cncn2)cc(C(C)(C)C#N)c1 [ANASTROZOLE]",
    "IC50": "Not Active"
  }
]

---

# System: 5-hydroxytryptamine receptor 2B (Homo sapiens, UniProt P41595); note: in other assays of this panel Not Active means under 50% inhibition at 10 µM
# Sequence (P41595 whole entry): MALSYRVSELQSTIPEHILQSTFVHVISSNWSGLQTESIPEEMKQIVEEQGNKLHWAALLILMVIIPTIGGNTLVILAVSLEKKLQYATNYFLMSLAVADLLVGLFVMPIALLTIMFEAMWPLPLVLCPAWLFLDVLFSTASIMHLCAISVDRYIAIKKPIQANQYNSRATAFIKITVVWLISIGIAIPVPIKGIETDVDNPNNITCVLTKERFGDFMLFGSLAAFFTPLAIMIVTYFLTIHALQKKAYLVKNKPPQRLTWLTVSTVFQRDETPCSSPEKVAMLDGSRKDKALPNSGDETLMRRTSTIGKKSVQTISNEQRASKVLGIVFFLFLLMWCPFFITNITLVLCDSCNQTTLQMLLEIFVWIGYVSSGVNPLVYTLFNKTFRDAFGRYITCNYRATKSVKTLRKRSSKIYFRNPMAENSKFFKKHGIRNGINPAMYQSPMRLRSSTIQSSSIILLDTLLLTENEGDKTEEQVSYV
# Type: cell membranes, CHO-K1, Membrane
# Particulars: read-out: Ki
pKi: −log10 of the molar value.
Reported pKi by item:
Endpoint label: pKi

[
  {
    "Compound": "CC(CN1c2ccccc2Sc2ccccc21)N(C)C (configuration not stated)",
    "System": "5-hydroxytryptamine receptor 2B (Homo sapiens, UniProt P41595)",
    "Val": 7.37
  },
  {
    "Compound": "CC1=C(/C=C/C(C)=C/C=C/C(C)=C/C(=O)O)C(C)(C)CCC1",
    "System": "5-hydroxytryptamine receptor 2B (Homo sapiens, UniProt P41595)",
    "Val": 6.64
  },
  {
    "Compound": "CCN(CC)CCNC(=O)c1cc(Cl)c(N)cc1OC [METOCLOPRAMIDE]",
    "System": "5-hydroxytryptamine receptor 2B (Homo sapiens, UniProt P41595)",
    "Val": 6.40
  },
  {
    "Compound": "Cc1cc(C(C)(C)C)c(O)c(C)c1CC1=NCCN1",
    "System": "5-hydroxytryptamine receptor 2B (Homo sapiens, UniProt P41595)",
    "Val": 5.71
  },
  {
    "Compound": "CCOc1cc(N)c(Cl)cc1C(=O)NCC1CN(Cc2ccc(F)cc2)CCO1 (configuration not stated) [MOSAPRIDE]",
    "System": "5-hydroxytryptamine receptor 2B (Homo sapiens, UniProt P41595)",
    "Val": 6.73
  },
  {
    "Compound": "COc1ccccc1OCCNCC(O)COc1cccc2[nH]c3ccccc3c12 (configuration not stated)",
    "System": "5-hydroxytryptamine receptor 2B (Homo sapiens, UniProt P41595)",
    "Val": 7.82
  },
  {
    "Compound": "CC(=O)Nc1ccc2c(c1)Cc1ccccc1-2",
    "System": "5-hydroxytryptamine receptor 2B (Homo sapiens, UniProt P41595)",
    "Val": 5.70
  }
]

---

# System: Vascular endothelial growth factor receptor 1 (Homo sapiens, UniProt P17948); note: in other assays of this panel Not Active means under 50% inhibition at 10 µM
# Sequence (P17948 whole entry): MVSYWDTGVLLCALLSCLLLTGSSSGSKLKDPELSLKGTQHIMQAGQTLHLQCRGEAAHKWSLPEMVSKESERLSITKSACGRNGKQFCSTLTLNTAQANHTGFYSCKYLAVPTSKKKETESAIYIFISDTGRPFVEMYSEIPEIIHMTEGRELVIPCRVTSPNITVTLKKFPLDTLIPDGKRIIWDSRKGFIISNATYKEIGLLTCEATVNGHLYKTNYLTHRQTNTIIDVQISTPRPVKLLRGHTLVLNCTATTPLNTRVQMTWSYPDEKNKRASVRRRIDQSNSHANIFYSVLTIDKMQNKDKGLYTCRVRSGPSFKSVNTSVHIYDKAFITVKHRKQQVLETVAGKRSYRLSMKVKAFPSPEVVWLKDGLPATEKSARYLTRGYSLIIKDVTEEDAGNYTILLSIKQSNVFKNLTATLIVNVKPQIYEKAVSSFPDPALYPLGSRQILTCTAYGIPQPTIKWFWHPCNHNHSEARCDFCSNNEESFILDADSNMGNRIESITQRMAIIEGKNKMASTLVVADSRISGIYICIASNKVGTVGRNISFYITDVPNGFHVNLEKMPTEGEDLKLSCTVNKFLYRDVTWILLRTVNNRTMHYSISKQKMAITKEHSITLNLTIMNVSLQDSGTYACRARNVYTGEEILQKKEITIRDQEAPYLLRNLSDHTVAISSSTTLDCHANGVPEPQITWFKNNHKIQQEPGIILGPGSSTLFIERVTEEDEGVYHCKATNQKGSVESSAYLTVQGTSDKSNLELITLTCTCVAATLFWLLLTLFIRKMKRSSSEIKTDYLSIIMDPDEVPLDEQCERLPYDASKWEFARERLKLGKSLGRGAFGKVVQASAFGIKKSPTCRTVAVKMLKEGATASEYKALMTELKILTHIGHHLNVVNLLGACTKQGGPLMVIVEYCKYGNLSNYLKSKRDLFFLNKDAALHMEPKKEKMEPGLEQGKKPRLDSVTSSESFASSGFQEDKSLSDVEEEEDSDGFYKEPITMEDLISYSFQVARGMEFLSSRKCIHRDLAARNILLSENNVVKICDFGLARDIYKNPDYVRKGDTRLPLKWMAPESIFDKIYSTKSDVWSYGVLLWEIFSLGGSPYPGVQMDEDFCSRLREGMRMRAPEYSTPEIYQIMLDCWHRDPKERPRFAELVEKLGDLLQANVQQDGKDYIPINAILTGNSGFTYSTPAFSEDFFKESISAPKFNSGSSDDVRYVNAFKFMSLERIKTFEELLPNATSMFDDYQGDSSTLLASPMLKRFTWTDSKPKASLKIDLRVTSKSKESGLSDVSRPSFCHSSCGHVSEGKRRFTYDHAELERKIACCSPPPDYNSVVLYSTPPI
# Assay type: cell-based
# Particulars: huvec
Endpoint label: IC50

[
  {
    "Compound": "CN1C[C@H](CNC(=O)OCc2ccccc2)C[C@@H]2c3cccc4c3c(cn4C)C[C@H]21",
    "Val": "Not Active"
  },
  {
    "Compound": "CN(CCOc1ccc(C[C@H](Nc2ccccc2C(=O)c2ccccc2)C(=O)O)cc1)c1ccccn1",
    "Val": "Not Active"
  },
  {
    "Compound": "COc1cc(NC(C)CCCN)c2ncccc2c1 (stereo not given)",
    "Val": "Not Active"
  },
  {
    "Compound": "CCCCCCNC(=O)n1cc(F)c(=O)[nH]c1=O",
    "Val": "Not Active"
  },
  {
    "Compound": "CCN(CC)CCNC(=O)c1cc(Cl)c(N)cc1OC [METOCLOPRAMIDE]",
    "Val": "Not Active"
  },
  {
    "Compound": "O=C(c1ccccc1)c1ccc2n1CCC2C(=O)O (stereo not given)",
    "Val": "Not Active"
  },
  {
    "Compound": "O=C(O)c1cc(/N=N/c2ccc(S(=O)(=O)Nc3ccccn3)cc2)ccc1O",
    "Val": "Not Active"
  },
  {
    "Compound": "CC(=O)[C@]1(O)Cc2c(O)c3c(c(O)c2[C@@H](O[C@H]2C[C@H](N)[C@H](O)[C@H](C)O2)C1)C(=O)c1ccccc1C3=O",
    "Val": "Not Active"
  },
  {
    "Compound": "CO[C@H]1O[C@@H]2O[C@@]3(C)CC[C@H]4[C@H](C)CC[C@@H]([C@H]1C)[C@@]24OO3",
    "Val": "Not Active"
  },
  {
    "Compound": "OC[C@H]1OC2C3[C@@H](CO)OC(O[C@H]4[C@H](O)[C@@H](O)[C@@H](O[C@H]5[C@H](O)[C@@H](O)[C@@H](O[C@H]6[C@H](O)[C@@H](O)[C@@H](O[C@H]7[C@H](O)[C@@H](O)[C@@H](O[C@H]8[C@H](O)[C@@H](O)[C@@H](O[C@H]9[C@H](O)[C@@H](O)C(OC1[C@H](O)[C@H]2O)O[C@@H]9CO)O[C@@H]8CO)O[C@@H]7CO)O[C@@H]6CO)O[C@@H]5CO)O[C@@H]4CO)[C@H](O)[C@H]3O",
    "Val": "Not Active"
  },
  {
    "Compound": "O=C(O)CCc1nc(-c2ccccc2)c(-c2ccccc2)o1",
    "Val": "Not Active"
  },
  {
    "Compound": "CC12CCC(CC1=O)C2(C)C (stereo not given)",
    "Val": "Not Active"
  },
  {
    "Compound": "CC[C@H](C)[C@@H](CO[C@@H](Cc1ccccc1)C(=O)N[C@@H](CCS(C)(=O)=O)C(=O)OC(C)C)NC[C@@H](N)CS",
    "Val": "Not Active"
  },
  {
    "Compound": "CC(Cl)(Cl)Cl",
    "Val": "Not Active"
  },
  {
    "Compound": "CC12CCC(CC1)C(C)(C)O2",
    "Val": "Not Active"
  },
  {
    "Compound": "CC(N)C12CC3CC(CC(C3)C1)C2 (stereo not given)",
    "Val": "Not Active"
  },
  {
    "Compound": "Cc1ccnc2c1NC(=O)c1cccnc1N2C1CC1",
    "Val": "Not Active"
  },
  {
    "Compound": "Oc1ccccc1",
    "Val": "Not Active"
  },
  {
    "Compound": "C[C@H](C(=O)O)c1ccc2oc(-c3ccc(F)cc3)nc2c1",
    "Val": "Not Active"
  },
  {
    "Compound": "CC(CN1c2ccccc2Sc2ccccc21)N(C)C (stereo not given)",
    "Val": "Not Active"
  },
  {
    "Compound": "C#C[C@]1(O)CC[C@H]2[C@@H]3CCC4=CC(=O)CC[C@@H]4[C@H]3CC[C@@]21C",
    "Val": "Not Active"
  },
  {
    "Compound": "O=[As][O-].[Na+] [SODIUM ARSENITE]",
    "Val": "Not Active"
  },
  {
    "Compound": "CC1(COc2ccc(CC3SC(=O)NC3=O)cc2)CCCCC1 (stereo not given)",
    "Val": "Not Active"
  },
  {
    "Compound": "O=C1CN(/N=C/c2ccc([N+](=O)[O-])o2)C(=O)N1",
    "Val": "Not Active"
  },
  {
    "Compound": "CCN1C[C@]2(COC)[C@H](O)C[C@H](OC)[C@@]34[C@@H]5C[C@@]6(O)[C@H](OC(=O)c7ccccc7)[C@@H]5[C@@](OC(C)=O)([C@@H]([C@H](OC)[C@H]23)[C@@H]14)[C@@H](O)[C@@H]6OC",
    "Val": "Not Active"
  },
  {
    "Compound": "Cc1[nH]c(=O)c(C#N)cc1-c1ccncc1",
    "Val": "Not Active"
  },
  {
    "Compound": "O=C1CC[C@@]2(O)[C@H]3Cc4ccc(O)c5c4[C@@]2(CCN3CC2CC2)[C@H]1O5 [NALTREXONE]",
    "Val": "Not Active"
  },
  {
    "Compound": "ClC1=C(Cl)[C@]2(Cl)[C@@H]3[C@@H]4C[C@@H]([C@H]5O[C@@H]45)[C@@H]3[C@@]1(Cl)C2(Cl)Cl",
    "Val": "Not Active"
  },
  {
    "Compound": "Cc1c(N)nc([C@H](CC(N)=O)NC[C@H](N)C(N)=O)nc1C(=O)N[C@H](C(=O)N[C@H](C)[C@@H](O)[C@H](C)C(=O)N[C@H](C(=O)NCCc1nc(-c2nc(C(=O)NCCC[S+](C)C)cs2)cs1)[C@@H](C)O)[C@@H](O[C@@H]1O[C@@H](CO)[C@@H](O)[C@H](O)[C@@H]1O[C@H]1O[C@H](CO)[C@@H](O)[C@H](OC(N)=O)[C@@H]1O)c1c[nH]cn1.[Br-]",
    "Val": "Not Active"
  },
  {
    "Compound": "Cc1cn([C@H]2C=C[C@@H](CO)O2)c(=O)[nH]c1=O",
    "Val": "Not Active"
  }
]
